// provenance: the supplement of paper PMC10567573

B1: IMPA1 (parent)
chain: FIGEESVAAGEKSILTDNPTWIID

- Variants of: B1
- test_name: protein stability index of a GFP-peptide fusion (GPS, HEK-293T) (PSI 1-6); higher = more stable;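 note: lentivirally expressed fusions sorted by FACS into six bins by GFP to DsRed ratio, PSI derived from sequencing read proportions per bin multiplied by bin number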
- experimental_parameters: c terminus: a fixed tail appended
Exercise: state measured protein stability index for each of the variants provided.
Answer with a bare number; do not write a unit.

Data request: Specify reported protein stability index for the variant shown: "G3C"
Data returned: 1.31

Data request: Specify reported protein stability index for the variant shown: "K12P"
Data returned: 2.45

Data request: Specify reported protein stability index for the variant shown: "W21C"
Data returned: 4.23

Data request: Specify reported protein stability index for the variant shown: "I14E"
Data returned: 2.31

Data request: Specify reported protein stability index for the variant shown: "I2M"
Data returned: 3.7

Data request: Specify reported protein stability index for the variant shown: "V7I"
Data returned: 1.92

Data request: Specify reported protein stability index for the variant shown: "E5W"
Data returned: 1.29

Data request: Specify reported protein stability index for the variant shown: "I14M"
Data returned: 2.15

Data request: Specify reported protein stability index for the variant shown: "D24R"
Data returned: 1.59

Data request: Specify reported protein stability index for the variant shown: "S13T"
Data returned: 1.89

Data request: Specify reported protein stability index for the variant shown: "A8G"
Data returned: 2.46

Data request: Specify reported protein stability index for the variant shown: "D17E"
Data returned: 2.6

Data request: Specify reported protein stability index for the variant shown: "S6D"
Data returned: 2.56

Data request: Specify reported protein stability index for the variant shown: "T20K"
Data returned: 3.4

Data request: Specify reported protein stability index for the variant shown: "D17Y"
Data returned: 1.48
